Origin of measurements: the supplement of paper PMC9732359

# assay_info: protein stability index of a GFP-peptide fusion (yeast GPS) (PSI 1-4); higher = more stable; sorted into four equal gates, so the index is relative within each strain
# test_parameters: pdr5∆
Below: a set of entries, each annotated with reported protein stability index.
readout: protein stability index

>>> data_value("PGGQAALRALARSGLRI [RPS14A]")
2.35
>>> data_value("QFGNACISLSGVPNYLV [SSN2]")
2.05
>>> data_value("DDKDCTIKISTNDDSIK [RGR1]")
3.15
>>> data_value("HARARGPRAVLTRQPTE [RET1]")
3.31
>>> data_value("DQAELPNNASSHISASA [SNF2]")
2.35
>>> data_value("ERLKQLTPNEIKELEHL [SWP82]")
2.84
>>> data_value("SAEDQLYAITFRKGLGN [QCR2]")
3.14
>>> data_value("QMLIQGVWDVDNPLRQI [BRR2]")
3.26
>>> data_value("WNRLTISVTDTEVERAK [COR1]")
3.12
>>> data_value("GFSFGSQLGGNKTVNEA [YJL041W/NSP1]")
3.23
>>> data_value("LEQIQVQLKDANSQIQA [YIL149C/MLP2]")
2.41
>>> data_value("DIETQLCSMLQEASQVT [MED11]")
2.73
>>> data_value("SPLLESDSIEKIVEIDR [PUP2]")
3.08
>>> data_value("ESEQELSLHTGFIENCN [MTR3]")
2.99

* * *

# assay_info: protein stability index of a GFP-peptide fusion (yeast GPS) (PSI 1-4); higher = more stable; sorted into four equal gates, so the index is relative within each strain
# test_parameters: ubr1∆
Label Yes when protein stability index is at or above 3; otherwise label No.

>>> category_label("EDFAPLLAEEEELILPN [PRP8]")
"No"
>>> category_label("IQKESTLHLVLRLRGGG [RPS31]")
"No"
>>> category_label("EIIFLGAQIVSKQIFTH [ARP9]")
"No"
>>> category_label("VPVIVKARFVSKLAEEK [RPL28]")
"No"
>>> category_label("NSLLSNFNDIPPSVTLQ [YDL088C/ASM4]")
"No"
>>> category_label("TVAHIQYDFKAVLEEND [RPN14]")
"No"
>>> category_label("NDLQSETKTKKEKIKGL [SMC4]")
"Yes"
>>> category_label("EYMVQYIDEMYNHNDGG [RRI1]")
"Yes"
>>> category_label("IIVKILYYRPHINKKSQ [GRR1]")
"No"

* * *

Below: a set of entries, each annotated with reported protein stability index.
# assay_info: protein stability index of a GFP-peptide fusion (yeast GPS) (PSI 1-4); higher = more stable; sorted into four equal gates, so the index is relative within each strain
# test_parameters: pdr5∆
readout: protein stability index

>>> data_value("YPREEEEDYNEFNSIDR [PRP8]")
3.24
>>> data_value("SLKKVDEIKAQRKEIKD [SMC4]")
2.94
>>> data_value("SELAGDEELEAEQIDVF [PRP8]")
3.19
>>> data_value("NERELNVFARLSRLLSL [RPC82]")
2.07
>>> data_value("KAPLQPNSERETDHANT [IRR1]")
2.98
>>> data_value("VIIKGFKTYRNETIIDN [SMC3]")
2.63
>>> data_value("REQSSNDSETHTEDEST [BRN1]")
3.43
>>> data_value("GEIVSINQINEAHPTKV [RPL20A]")
2.98
>>> data_value("EETDEVSSESSDEAIIP [SIR3]")
2.52
>>> data_value("ANLMLVMLRLLLVVIFK [SRB4]")
1.51
>>> data_value("NEDSKAFHTAVLRLNAI [NUT1]")
3.34
>>> data_value("PVLFNRQPSLHKMSMMA [RPO21]")
2.95
>>> data_value("NPVTLNEDSKAFHTAVL [NUT1]")
2.96
>>> data_value("IESIVNLAPKLRNVFLG [GRR1]")
1.41
>>> data_value("LQHELMISIIKLVTNVV [YML103C/NUP188]")
1.8
>>> data_value("TVALREIRRFQKSTELL [HHT1]")
2.91
>>> data_value("SAWIWPMDEETKLYFDV [RPC25]")
2.4
>>> data_value("EEFAYVDPARRQILFKY [MED6]")
2.19
>>> data_value("DELILEAKERYTDRDQD [NNF1]")
3.68
>>> data_value("DDEHNPTIVGGLYYQRP [AAR2]")
2.56
>>> data_value("GYLITPPKHTELLLTTL [SSN2]")
1.86
>>> data_value("IVEEDLEPFEASKETAE [FAS2]")
3.21
>>> data_value("AAREKKIRELEAELSST [YIL149C/MLP2]")
3.25
>>> data_value("DIIVAIKIFELKLPADA [IRR1]")
1.21
>>> data_value("EQRKQKLSKILPRYQEL [SMC3]")
3.1
>>> data_value("ISNYNTKYTDDMATGSN [SRB8]")
2.52
>>> data_value("FGSADDTYPYLTGEWST [FAS1]")
1.32
>>> data_value("TDLHLPKKEYDDDAVRR [NSL1]")
2.25
>>> data_value("ALSIADDASSAELLGRV [RPC53]")
2.92
>>> data_value("NGLAIRRAAYGVVRYVM [RPS3]")
1.91
>>> data_value("THAQRTGLSQIPNRRFT [PRP8]")
2.62

* * *

# assay_info: protein stability index of a GFP-peptide fusion (yeast GPS) (PSI 1-4); higher = more stable; sorted into four equal gates, so the index is relative within each strain
# test_parameters: doa10∆
readout: protein stability index

>>> data_value("HLLPAFLKVKGLVKQHL [RET1]")
3.2
>>> data_value("VASADYESQTFSSKNEW [PRP8]")
2.83
>>> data_value("MGPLYQNFAEFMTKLLE [IRR1]")
2.27
>>> data_value("KSICFENCLNNDPEILK [SWI1]")
2.2
>>> data_value("SDLVNQGIIYAKVNRPA [RPN5]")
2.97
>>> data_value("YISLLKLQGLYENIPIY [YDL116W/NUP84]")
1.67
>>> data_value("KIEFPLPSEDSRAQILQ [RPT5]")
3.39
>>> data_value("VVPNEKADDDSVTIISA [ASC1]")
2.98
>>> data_value("MLLGTDLCSLKPYVDRF [DIS3]")
2.62
>>> data_value("TWNGSPFDNSTEEKCKN [YJL039C/NUP192]")
3.1
>>> data_value("NNKKVVGTAIDSILNYA [ECM29]")
2.4
>>> data_value("PASNILRRTTQRVFDET [YDL116W/NUP84]")
2.66
>>> data_value("YLERTLDTFIKIDGNPD [PRE5]")
2.73
>>> data_value("NAKDIQIPVYDTFDGSD [FAS1]")
2.47

* * *

# assay_info: protein stability index of a GFP-peptide fusion (yeast GPS) (PSI 1-4); higher = more stable; sorted into four equal gates, so the index is relative within each strain
# test_parameters: ubr1∆
Below: a set of entries, each annotated with reported protein stability index.
readout: protein stability index

>>> data_value("LDFQTNKRLCDEIATIQ [RPS17A]")
3.18
>>> data_value("ATAEKLPNIYPSTRCKL [RPT2]")
2
>>> data_value("KNTLLERLKQLTPNEIK [SWP82]")
2.68
>>> data_value("VYAFKAKNKSTRINGLN [REC8]")
1.59
>>> data_value("KPEIDENGTLLVPPPRT [RPR2]")
2.99
>>> data_value("NMLPQRQSSVGSLNATN [SNF2]")
3.08
>>> data_value("DDTAANNGDKDHLKLVS [YIL149C/MLP2]")
3.2
>>> data_value("NLYHVTEDGWIYHGNHD [PRE2]")
3.28
>>> data_value("IKAPTVAADGKLVTYIV [YLR335W/NUP2]")
2.16
>>> data_value("GVIIKVEESGEHVILGN [SNU114]")
3
>>> data_value("SHLYKARLDGHDFLFNT [RPN14]")
2.85
>>> data_value("PVLFNRQPSLHKMSMMA [RPO21]")
2.23
>>> data_value("GETIKSNAVTQTNIWEE [SEM1]")
3.43
>>> data_value("VDAITRCYQPFELFDNK [SNU114]")
3
>>> data_value("TSALSELSGLISSAKLD [QCR2]")
1.94
>>> data_value("LAKSGSTEETTANTGTI [TAF14]")
2.39
>>> data_value("EYFGGESPVDVQSQVDS [FAS1]")
3.07
>>> data_value("GLGMISASHILIPASDL [PRP8]")
2.19
>>> data_value("PTEMEPDLDTECFISMQ [SWI1]")
3.26
>>> data_value("TVLVIDNSEYSRNGDFP [RPN10]")
2.44
>>> data_value("TQGGNVNLDNTAVGKAA [RPT5]")
3.17
>>> data_value("ESRSFSPIPFPPLTYKN [PRP8]")
2.62
>>> data_value("SMNKELIAIVSKLLQTT [NUT1]")
1.4
>>> data_value("SAIRQVFERFKTKILEV [IRR1]")
2.26
>>> data_value("DRSKLKKGVRVTLDITT [RPT4]")
2.57
>>> data_value("AQFQYTLDRNTAAETFK [RPL8A]")
2.06
>>> data_value("SAWIWPMDEETKLYFDV [RPC25]")
2.41
>>> data_value("SLGIRPCLRKYEEFRDV [RRP43]")
2.96
>>> data_value("LGNDIPHDLIIGTADIF [BRR2]")
2.86
>>> data_value("QNIAQSSNQSAPVETKK [HRT1]")
3.16
>>> data_value("DKVTSQAVNNLIKTLST [RPP1]")
2.62
